Attribution: patent US20250295636A1

- Test system: A375
- method.notes: MTS cell proliferation assay, A375 (skin)
- Assay type: cell-based
- measurement.conditions: Homo sapiens, A-375, 72 hours at 37° C., 490 nm
pIC50: −log10 of the molar value.
reported.property: pIC50

[[record]]
compound = "Cn1c(CCCC(=O)O)nc2c(C=O)c(N(CCCl)CCCl)ccc21"
recorded_result = 2.89

